- setup_conditions: in methanol, 308.15 K
property_measured: solubility (mole fraction)
Numbers only.

Problem: Look up solubility (mole fraction) of NC(=O)c1ccccc1 and report it.
Solution: 0.123

----------
- setup_conditions: in ethyl acetate, 313.15 K
property_measured: solubility (mole fraction)

Problem: Look up solubility (mole fraction) of NC(=O)c1ccccc1 and report it.
Solution: 0.0527

----------
- setup_conditions: in n-propanol, 298.15 K
property_measured: solubility (mole fraction)
Answers are plain numbers.

Problem: Look up solubility (mole fraction) of NC(=O)c1ccccc1 and report it.
Solution: 0.0552

----------
- setup_conditions: in ethyl acetate, 323.15 K
property_measured: solubility (mole fraction)
One number for each entry.

Problem: Look up solubility (mole fraction) of NC(=O)c1ccccc1 and report it.
Solution: 0.0717

Data credit: BigSolDB 2.1
